Protocol description: qHTS for Inhibitors of human tyrosyl-DNA phosphodiesterase 1 (TDP1): qHTS in cells in absence of CPT; further: nearly all actives have a fitted effect of over 55% in size; further: potency means the concentration at half of the fitted maximal effect
Condition label: DT40 Tdp1-/- hTDP1 cells, no CPT, ATP luminescence, 48 h
Procedure: Human tyrosyl-DNA phosphodiesterase 1 (TDP1) is a novel repair gene, and we propose to use it as a new target for anticancer drug development. […] For the primary screen, Tdp1-/-;hTDP1 cells will be exposed to small molecules in the presence or absence of CPT, and their growth kinetics will be evaluated after 48 hours by measuring ATP activity. […] The hit compounds will then be evaluated in the presence or absence of CPT using Tdp1-/- cells. […]
The campaign covered roughly 420,000 compounds. About 64,000 (15%) were called active. About 27% were inconclusive and are not listed. Not all results are given here.
Readout name: Potency

- Molecule: "COc1ccc(CCNC(=O)CSc2nnc3ccc(-c4ccncc4)nn23)cc1"
  Value: "inactive"
- Molecule: "COc1cc(OC)c(NC(=O)C2CCCN2C(=O)OCc2ccccc2)cc1Cl (stereo not drawn)"
  Value: "inactive"
- Molecule: "CCCNC(=O)N1CCN(C(=O)NCCC)CC1"
  Value: "inactive"
- Molecule: "COc1ccccc1N(CC(=O)N/N=C(\\C)c1ccccc1O)S(=O)(=O)c1ccc(C)cc1"
  Value: "1.64 µM (active)"
- Molecule: "Cc1cc(=O)oc(C)c1C(=O)NC1CC(C)(C)NC(C)(C)C1"
  Value: "inactive"
- Molecule: "COc1cc(C(=O)Nc2cc(C(F)(F)F)ccc2-n2cncn2)cc(OC)c1OC"
  Value: "inactive"
- Molecule: "CCOC(=O)c1c(C)oc2nc(C)nc(N(CC(C)C)CC(C)C)c12"
  Value: "16.4 µM (active)"
- Molecule: "Cc1cccc(NC(=O)COc2ccccc2C)n1"
  Value: "inactive"
- Molecule: "Cc1ccc(NS(=O)(=O)c2ccc(N/N=C/c3ccccc3OCC(=O)O)c([N+](=O)[O-])c2)c(C)c1"
  Value: "inactive"
- Molecule: "CCOc1ccc(NC(=S)N2CCC(N(C)CC3CCCO3)CC2)cc1 (stereo not drawn)"
  Value: "inactive"
- Molecule: "Cc1ccc(NS(=O)(=O)c2ccc3c(c2)CC(=O)N3)cc1Cl"
  Value: "inactive"
- Molecule: "CC(C)CC1(C(=O)NCc2ccccn2)C=CCN1C(=O)c1ccccc1 (stereo not drawn)"
  Value: "inactive"
- Molecule: "COc1ccc(N2CCN(C(=O)c3c(C)oc4nc(C)nc(N5CCCC5)c34)CC2)cc1"
  Value: "inactive"
- Molecule: "O=C(Oc1cccnc1)c1cc2ccccc2oc1=O"
  Value: "inactive"
- Molecule: "Cn1c2c(c(=O)n(C)c1=O)CN(Cc1ccco1)CN2"
  Value: "inactive"
- Molecule: "O=C(Nc1cc(Cl)ccc1N1CCOCC1)c1ccc(N2CCCC2=O)cc1"
  Value: "inactive"
- Molecule: "CCOC(=O)c1c(C)oc2nc(C)nc(Nc3ccc(CC)cc3)c12"
  Value: "inactive"
- Molecule: "Cc1cc(C)cc(OCC(=O)Nc2c(C(=O)c3ccccc3)oc3ccccc23)c1"
  Value: "inactive"
- Molecule: "CNc1nc(-c2ccccc2OC)nc2ccccc12"
  Value: "7.31 µM (active)"
- Molecule: "COc1cc(Nc2nc(-c3ccc(OC)c(OC)c3)nc3ccccc23)cc(OC)c1"
  Value: "2.06 µM (active)"
- Molecule: "CC(CCN1CCN=C1N(C)C)c1ccccc1 (stereo not drawn)"
  Value: "inactive"
- Molecule: "CNS(=O)(=O)c1ccc(N2CCCC2=O)c([N+](=O)[O-])c1"
  Value: "inactive"
- Molecule: "Cc1nc2ccccc2c(C)c1C(=O)c1ccc(F)cc1"
  Value: "inactive"
- Molecule: "CC1CCN(C(=O)COC(=O)c2cc(S(=O)(=O)N3CCOCC3)ccc2Cl)CC1"
  Value: "inactive"
- Molecule: "COc1ccc(CNC(=O)CSc2n[nH]c(N)n2)cc1OC"
  Value: "inactive"
- Molecule: "O=C(c1ccc(N2CCCC2=O)cc1)N1CCN(c2ccc(C(F)(F)F)cc2[N+](=O)[O-])CC1"
  Value: "2.31 µM (active)"
- Molecule: "CCOC(=O)c1sc(NC(=O)C(CC)Sc2nccn2C)nc1C (stereo not drawn)"
  Value: "inactive"
- Molecule: "O=[N+]([O-])c1cc(C(F)(F)F)ccc1NN=C1CCCC1"
  Value: "inactive"
- Molecule: "Cn1cc(C2OC(=O)c3ccccc32)c2ccccc21 (stereo not drawn)"
  Value: "inactive"
- Molecule: "O=C(N/C(=C\\c1ccc(O)cc1)C(=O)N1CCCCC1)c1ccccc1"
  Value: "inactive"
- Molecule: "C#CCOCCOCCOCCNc1nc(N2CCN(C(=O)[C@H](CCCCN)n3cc(CCC(=O)O)nn3)CC2)nc(N2CCN(C(=O)[C@H](CCCCN)n3cc(CC(C)O)nn3)CC2)n1 (stereo partly drawn)"
  Value: "inactive"
- Molecule: "C=CCn1c2ccccc2c2nnc(SC(CC)C(=O)Nc3nc(C)c(C(=O)OCC)s3)nc21 (stereo not drawn)"
  Value: "8.2 µM (active)"
- Molecule: "COc1cc(CNC2CCCC2)c(Br)cc1OCc1ccccc1"
  Value: "16.4 µM (active)"
- Molecule: "CCOC(=O)c1c(C)oc(C)c(C(=O)OCC)c1=O"
  Value: "inactive"
- Molecule: "Cc1cc(C)c(NC(=O)C[N+](C)(C)CC(O)COc2cccc3ccccc23)c(C)c1 (stereo not drawn)"
  Value: "18.4 µM (active)"
- Molecule: "Cc1cccc(-c2noc(-c3ccc(F)cc3)n2)c1"
  Value: "inactive"
- Molecule: "O=C(NCc1ccncc1)c1ccc(NS(=O)(=O)c2cccc([N+](=O)[O-])c2)cc1"
  Value: "inactive"
- Molecule: "Cc1cc(C)c(C)c(S(=O)(=O)Nc2ccc(O)cc2)c1C"
  Value: "11.6 µM (active)"
